test-protocol: Cytotoxicity determination (MTT test, 7 days)
Type: cell-based
measurement-conditions: human, CEM-T4 cells
measurement-type: CC50 at 7 days (µM)
Note: unit µM is implicit; provide only the numeric part.

In: Identify the reported CC50 at 7 days for the following entry. Cc1cn([C@H]2C[C@H](N=[N+]=[N-])[C@@H](CO)O2)c(=O)[nH]c1=O
Out: 60

Source of measurements: patent US9206209B2
